- Tested on: FC5
- Sequence (as listed by the source): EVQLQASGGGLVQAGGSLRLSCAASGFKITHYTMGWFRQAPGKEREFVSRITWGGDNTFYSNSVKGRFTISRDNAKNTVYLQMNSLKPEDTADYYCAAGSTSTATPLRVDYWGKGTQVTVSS
- PROCEDURE DETAILS: Surface Plasmon Resonance for VHH antibodies, immobilized FC5
- Format: binding
- STUDY CONDITIONS: SPR; 25 C
TEST READOUT: Binding to immobilized FC5 (comment, in words)

[
  {
    "MOLECULE": "DI-16: VHH from FC5DIE3IR llama immune library; SEQ ID NO: 49; clone DI-11 has identical sequence (protein, DI-16) VHH: QAQVQLVESGGGLVQAGGSLRLSCAASGRTVSSYTMGWFRQAPGKERRFVATVNSSGRGTHYADSVKGRFTISRDNAKNTVYLQMNSLKPEDTAVYYCAAAPYPDGSLGPGYDYWGQGTQVTVSS",
    "RECORDED VALUE": "No binding"
  },
  {
    "MOLECULE": "DI-4: VHH from FC5DIE3IR llama immune library; SEQ ID NO: 47 (protein, DI-4) VHH: QVQLVESGGGLVQPGGSLRLSCAASGFTFSNYWMYWVRQAPGKGLERVSSIYISGGNTYYADSVKGRFTISRDNAKNTLYLQMNSLKSEDTAVYYCVKGDTFGGMDYWGKGTQVTVSS",
    "RECORDED VALUE": "No binding"
  },
  {
    "MOLECULE": "DI-48: VHH from FC5DIE3IR llama immune library; SEQ ID NO: 59 (protein, DI-48) VHH: QAQVQLVESGGGLVQAGGSLRLSCAASGRTFSTYVMGWFRQTPGKEREFVAGFSWSGDYAIYVNSVKGRFTISRDNAKNTVYLQMNSLRPEDTAVYYCAARQRGGYSGRSYYTGRNDYEYWGQGTQVTVSS",
    "RECORDED VALUE": "No binding"
  }
]
